tested on: OVCAR-5; assay: NCI tumour cell line growth inhibition, 48 h
Activity calls are given as the source filed them. No stated cut-off is given here; in the data, active = GI50 up to about 1.1 µM and inactive = higher.
Listing of entries alongside the reported GI50.
QUANTITY KIND: GI50

| COMPOUND | VAL |
| --- | --- |
| CCN(CC)CCSc1c(C(C)=O)c(=O)n(-c2ccccc2)c(=S)n1-c1ccccc1 | 21 µM (inactive) |
| NS(=O)(=O)c1ccc(NNc2c3ccccc3nc3ccccc23)cc1 | 12.8 µM (inactive) |
| Cc1ccc(S(=O)(=O)NNC(C[N+](=O)[O-])c2ccccc2)cc1 (stereo unspecified) | 44.8 µM (inactive) |
| Cc1n[n+](CC(=O)c2ccccc2)c2sc(N)nn12 | > 100 µM (inactive) |
| CC(C)CC1C(=O)OC(C)(C)OC1=O | > 100 µM (inactive) |
| Cc1cc(C(C)(C)C)cc(CNC2CCCCC2)c1O | 16.2 µM (inactive) |

* * *

test system: 786-0; assay: NCI tumour cell line growth inhibition, 48 h
Calls of active or inactive are those of the source. No stated cut-off is given here; in the data, active = GI50 up to about 1.1 µM and inactive = higher.
Possible outcomes: active, inactive

| COMPOUND | STUDY SYSTEM | GROUP |
| --- | --- | --- |
| O=C1NC(=O)c2ccccc2/C1=C/c1ccc2c(c1)OCO2 | 786-0 | inactive |
| CC1=C(C(=O)c2ccccc2)C23C(=O)N(c4ccccc4)C(=O)C2=C(O)C=CC3(O)N1 (stereo not given) | 786-0 | inactive |
| CCOc1nc2c(N3CCCC3)nc(N3CCNCC3)nc2nc1NCc1ccccc1 | 786-0 | inactive |
| CCC(=O)Nc1ccc(N2C(=O)C(Cl)C2c2ccc(SC)cc2)cc1 (stereo not given) | 786-0 | inactive |
| CNNC1=NS(=O)(=O)c2cc(C(=O)OC)c(Cl)cc2S1 | 786-0 | inactive |
| O=S1(=O)C[C@@H](O)[C@H](O)CS1 | 786-0 | inactive |
| Cc1cc(C(C)(C)C)cc(CNC2CCCCC2)c1O | 786-0 | inactive |
| CCc1n[nH]c(=O)n1CCO | 786-0 | inactive |
| CC1(C)[C@@H]2CC[C@@]1(C)[C@@H]1O[C@@H](O[C@@H](CN)c3cc(Cl)c(OCc4ccccc4)c(OCc4ccccc4)c3)C[C@H]21 | 786-0 | active |
| CN(c1ccccc1)c1nc(=[N+]2CCCC2)ss1.[O-][Cl+3]([O-])([O-])[O-] | 786-0 | inactive |

* * *

tested on: OVCAR-5; test: NCI tumour cell line growth inhibition, 48 h
Calls of active or inactive are those of the source. Rule as the data show it: active = GI50 up to about 1.1 µM and inactive = higher.
Labels: T for active, F for inactive

| MOLECULE | STUDY SYSTEM | GROUP |
| --- | --- | --- |
| CC(C)(C)OC(=O)N1C(=O)C2CCCC21 (configuration not stated) | OVCAR-5 | F |
| COC1(OC)CC2C(=O)N(Cc3ccccc3)C1C(S(=O)(=O)c1ccccc1)C2C(C)S(=O)(=O)c1ccccc1 (configuration not stated) | OVCAR-5 | F |
| COc1ccc(N2CN(C)CSC2=S)cc1 | OVCAR-5 | F |
| N/N=c1\[nH]c2ccccc2o1 | OVCAR-5 | F |
| NC(=O)c1ncn(C2C=CC(CP(=O)(O)O)C2)c1N (configuration not stated) | OVCAR-5 | F |
| Cc1c2ccccc2c(CSC(=N)N)c2ccccc12 | OVCAR-5 | T |
| CC(C)(Br)C(=O)C(Br)Br | OVCAR-5 | F |
| N#CC1=C2SCCN2C(=O)C(C#N)C12CCCCC2 (configuration not stated) | OVCAR-5 | F |
| O=C(O)CSc1ccc(N=C=S)cc1 | OVCAR-5 | F |
| CC(=O)Oc1c(-c2ccccc2)oc2ccccc12 | OVCAR-5 | F |
| COc1cc(Oc2nc3cc(F)c(F)cc3nc2-c2ccccc2)cc(OC)c1OC | OVCAR-5 | F |
| CN1CC(c2ccccc2)=CC2=C1C=CC(=N)/C2=N\N | OVCAR-5 | F |
